FYI, the data here is from paper PMC9501356.

target: recombinant Human Carbonic Anhydrase XII (Homo sapiens, UniProt O43570); construct: purchased R and D system (MN, USA); experiment: hCA XII inhibitory assay (4-nitrophenyl acetate esterase); assay type: biochemical; details: average ± SEM, three independent experiments; read-out: Carbonic Anhydrase (IC50, nM) CA-XII
Sequence (O43570 25-354): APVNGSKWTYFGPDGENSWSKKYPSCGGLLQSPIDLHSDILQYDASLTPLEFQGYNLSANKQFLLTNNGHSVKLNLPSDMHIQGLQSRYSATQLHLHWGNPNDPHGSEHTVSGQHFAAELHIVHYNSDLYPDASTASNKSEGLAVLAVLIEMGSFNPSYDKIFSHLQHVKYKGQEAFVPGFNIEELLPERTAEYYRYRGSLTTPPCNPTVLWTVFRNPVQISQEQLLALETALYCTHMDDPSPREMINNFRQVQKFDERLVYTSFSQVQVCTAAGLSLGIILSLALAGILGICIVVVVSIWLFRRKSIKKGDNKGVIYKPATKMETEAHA
PROPERTY_MEASURED: IC50 (nM)
Answers are plain numbers, in nM.

Cc1ccc(/C=C2\SC(Nc3ccc(S(=O)(=O)Nc4cc(C)on4)cc3)=NC2=O)cc1 yielded IC50 of 0.9

====

biological target: hCA II (Homo sapiens, UniProt P00918); construct: purchased BPS bioscience (CA, USA); test: CAII inhibitory assay (p-nitrophenyl acetate); assay type: biochemical; settings: average ± SEM, three independent experiments; read-out: Carbonic Anhydrase IC50 (uM) hCA II
PROPERTY_MEASURED: IC50 (µM)
One number for each entry, in µM.

Answered examples (3):
SMILES_STR: Cc1ccc(C(=O)Nc2ccc(S(=O)(=O)Nc3cc(C)on3)cc2)cc1
RECORDED_MEASUREMENT: 1.85

SMILES_STR: Cc1cc(NS(=O)(=O)c2ccc(NC(=O)c3ccc(Cl)cc3)cc2)no1
RECORDED_MEASUREMENT: 0.543

SMILES_STR: C=CCN(c1cc(C)on1)S(=O)(=O)c1ccc(N)cc1
RECORDED_MEASUREMENT: 0.102

Below: the item to evaluate.
For record CCCN(c1cc(C)on1)S(=O)(=O)c1ccc(N)cc1 the listed IC50 is 0.199
